Sourced from patent US20090162358A1

Target: T1, human β-amyloid 1-40 (human, UniProt P05067 672-711)
T1 construct: domain: β-amyloid (1-40); Used in solution over captured antibody (Biacore) or coated on ELISA plates; also called human Aβ peptide (1-40); Aβ peptide (1-40)
T1 sequence (P05067 672-711 limits assumed): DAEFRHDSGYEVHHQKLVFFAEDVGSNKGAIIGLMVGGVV
Experiment: SPR Biacore 3000; mAb captured on anti-mouse IgG, Aβ 1-40 at 4-500 nM
parameter: pKd
When answering, recall that pKd equals minus log10 of the concentration in mol/L, and write that number alone.

-- ask Request the reported pKd associated with 4D4 mouse monoclonal antibody (antibody, V domains shown, Mouse hybridoma antibody) VH: EVQLQQSGAELVEPGASVKLSCTGSGFNIKVYYVHWLKQLTEQGLEWIGRIDPENGETLYTPKFQGKATLTVDTSSNTAYLQLNSLTSEDTAVYYCVSSGYWGQGTSLTVSS VL: DIVMTQSAFSNPVTLGTSASISCRSSKSLLHRNGITYLYWYLQKPGQSPQLLIYQMSNLASGVPDRFTSSGSGTDFTLKISRVEAEDVGVYYCAQNLELWTFGGGTKLEIK
-- reply 8.95

-- ask Form field: reported pKd of 16D4 mouse monoclonal antibody (antibody, V domains shown, Mouse hybridoma antibody) VH: EVQLQQSGAELVKPGASVKLSCTASGFNIKDYYMHWLKQLTEQGLEWIGRIDPENGETQYAPKFQGKASLTADTSSNTAYLHLSSLTSEDTAVYYCVSSGYWGQGTTLTVSS VL: DIVMTQAAFSNPVTLGTSASISCRSSKSLLHSNGITYLYWYLQKPGQSPQLLIYQMSNLASGVPDRFSSSGSGTDFTLRISRVEAEDVGVYYCAQNLELWTFGGGTKLEIK
-- reply 8.12

-- ask GET /values?readout=pKd&item= 2E11 mouse monoclonal antibody (antibody, V domains shown, Mouse hybridoma antibody) VH: EVQLQQSGAEVVKPGASVKLSCTASGFNIKVYYIHWLKQLTEQGLEWIGRIDPENGETKYVPKFQGKATLTVDTSSNTAYLHLSSLTSEDTGVYYCVTSGYWGQGTTLTVSS VL: DIVMTQAAFSNPVALGTSASISCRSSKSLLHSNGITYLYWYLQKPGQSPQLLIYQMSNLASGVPDRFSSSGSGTDFTLRISRVEAEDVGVYYCAQNLELWTFGGGTKLEIK
-- reply 8.70

-- ask What value of pKd has been recorded for this entry: 2C1 mouse monoclonal antibody (antibody, V domains shown, Mouse hybridoma antibody) VH: EVQLQQSGAELVKPGASVKLSCTGSGFNIKVYYVHWLKQLTEQGLEWIGRIDPENGETIYAPKFQDKATLTVDTSSNTAYLQLSSLTSEDTAVYYCVSSGYWGQGTTLTVSS VL: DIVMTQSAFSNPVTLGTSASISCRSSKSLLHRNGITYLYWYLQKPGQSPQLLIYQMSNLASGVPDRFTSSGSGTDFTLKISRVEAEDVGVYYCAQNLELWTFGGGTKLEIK
-- reply 8.71

-- ask What does the record list as pKd for 5D1 mouse monoclonal antibody (antibody, V domains shown, Mouse hybridoma antibody) VH: EVQLQQSGAELVKPGASVKLSCTGSGFNIKVYYVHWLKQLTEQGLEWIGRIDPENGETKYAPKFQDKATLTVDTSSNTAYLHLSSLTSEDTAVYYCVSSGYWGQGTTLTVSS VL: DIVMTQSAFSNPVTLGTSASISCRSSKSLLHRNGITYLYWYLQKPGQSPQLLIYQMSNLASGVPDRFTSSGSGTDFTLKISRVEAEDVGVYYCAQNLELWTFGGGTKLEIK ?
-- reply 8.59
